assayed_target: Microtubule-associated protein tau (Homo sapiens) (UniProt P10636)
Sequence (P10636 561-689 P618L limits assumed): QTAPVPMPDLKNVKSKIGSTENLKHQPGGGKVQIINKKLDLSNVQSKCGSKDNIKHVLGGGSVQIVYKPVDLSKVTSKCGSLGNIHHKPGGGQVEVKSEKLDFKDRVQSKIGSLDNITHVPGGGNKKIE
protocol_notes: Confirmation Concentration-Response Assay for Inhibitors of Tau Fibril Formation, Fluorescence Polarization
study_conditions: recombinant tau K18 P301L heparin fibrillization, Alexa594 FP; series mostly up to 57.1 µM
Results filed as inconclusive are left out. Calls of active or inactive are those of the source. Calls come from the whole dose curve; as a rule, active = well fitted curve in the direction sought with a large enough effect; inconclusive = small, poorly fitted or top-dose-only effect, or another doubt; inactive = no such curve, though single readings can be large or run the other way.
attribute_measured: Potency

compound="COc1cc(/C=N/N=C2/NC(=O)C(CC(=O)O)S2)ccc1OCc1ccc(Cl)cc1 (centres undefined)" reported_result=inactive
compound=O=S(=O)(c1ccc(NC(=S)N/N=C/c2ccc(N3CCOCC3)cc2)cc1)N1CCOCC1 reported_result=inactive
compound=CCN(CC)S(=O)(=O)c1cccc(NC(=O)Nc2cccc(C(F)(F)F)c2)c1 reported_result="2820 nM (active)"
compound=CCOC(=O)c1nn(-c2cccc(C(F)(F)F)c2)c(=O)c2c(N)scc12 reported_result=inactive
compound="COC(=O)c1c(NC(=O)C(C)(C)C)sc2c1C(C(=O)OC)CC2 (centres undefined)" reported_result=inactive
compound=Cn1sc(NC(=O)c2ccccc2)nc1=O reported_result=inactive
compound=O=C(Cc1ccccc1)Nc1sc2c(c1C(=O)Nc1cccc(Cl)c1)CCCC2 reported_result=inactive
compound=O=C(CSc1nc2scc(-c3ccco3)c2c(=O)n1-c1ccccc1)N1CCOCC1 reported_result=inactive
compound=COc1ccc(OC)c(NC(=O)c2c(NCc3cccs3)sc3c2CCCC3)c1 reported_result=inactive
compound=NC[C@@H](O)c1ccc(O)c(O)c1 reported_result=inactive
compound=S=C1Cc2ccccc2N1 reported_result=inactive
compound=CC(C)(C)c1ccc(NC(=O)N2CCN(c3ccc([N+](=O)[O-])cn3)CC2)cc1 reported_result=inactive
compound=COc1ncc(-c2ccccc2)cc1N reported_result=inactive
compound=COc1ccc2oc(-c3ccc(NC(=O)c4ccc(N5CCOCC5)c([N+](=O)[O-])c4)cc3)nc2c1 reported_result=inactive

* * *

assayed_target: Microtubule-associated protein tau (Homo sapiens) (UniProt P10636)
protocol_notes: Confirmation Concentration-Response Assay for Inhibitors of Tau Fibril Formation, Fluorescence Polarization
study_conditions: recombinant tau K18 P301L (four-repeat tau fragment) heparin fibrillization, Alexa594 FP; series mostly up to 57.1 µM
Results filed as inconclusive are left out. Activity calls are given as the source filed them. Calls follow the shape of the dose curve; as a rule, active = well fitted curve in the direction sought with a large enough effect; inconclusive = small, poorly fitted or top-dose-only effect, or another doubt; inactive = no such curve, though single readings can be large or run the other way.
Classes used: 1 (active), -1 (inactive)

compound="COC(=O)C1CCc2sc(N)c(C(=O)OCc3ccccc3)c21 (stereo not drawn)" classification=-1
compound=Cc1ccc(NC(=O)N2CCN(c3ccccn3)CC2)cc1 classification=-1
compound=COc1ccc2c(c1)c(CC(=O)N1CCOCC1)c(C)n2C(=O)c1ccc(Cl)cc1 classification=-1
compound=COC(=O)CSc1nc2ccc(NC(=O)CSc3nnnn3Cc3ccccc3)cc2s1 classification=-1
compound=CCOC(=O)c1nn(-c2ccccc2)c(=O)c(C#N)c1C classification=-1
compound=Cc1nc2ccccc2oc1=O classification=-1
compound=CCOC(=O)c1c(N)sc2c1CN(C)CC2 classification=-1
compound=O=C(Nc1nc2ccc(S(=O)(=O)N3CCCC3)cc2s1)c1ccc(F)cc1 classification=-1
compound=CCOC(=O)c1nn(-c2ccccc2)c(=O)c2c(NC(=O)c3ccccc3)scc12 classification=-1
compound=COc1ccc(NC(=O)c2c(NC(=O)Cc3ccccc3)sc3c2CCCC3)cc1 classification=-1
compound=CCOC(=O)c1ccc(-n2nc(C(=O)OCC)c3csc(N)c3c2=O)cc1 classification=-1
compound=O=C(O)CN1C(=O)/C(=C/c2ccc(-c3cccc(Cl)c3)o2)SC1=S classification=-1
compound=COc1ccc(CNC(=O)Cn2nc(C)n3cccc3c2=O)cc1 classification=-1
compound=Nc1ccc(-c2ccc3ccccc3n2)cc1 classification=-1
compound=O=C(Nc1nnc(S(=O)(=O)Nc2ccccc2)s1)C1CCCCC1 classification=-1
compound=CCN(c1ccccc1)S(=O)(=O)c1nnc(NC(=O)C(C)(C)C)s1 classification=-1
compound=O=C(Nc1ccccc1)Nc1ccccc1 classification=-1
compound="COC(=O)C1CCc2sc(NC(=O)Cc3ccccc3)c(C(=O)Nc3ccc(Cl)cc3)c21 (stereo not drawn)" classification=-1
compound=O=C(NCCCO)Nc1ccc2nc(-c3ccco3)c(-c3ccco3)nc2c1 classification=1
compound=O=S(=O)(c1ccc2nc(-c3ccco3)c(-c3ccco3)nc2c1)N1CCOCC1 classification=1
compound="COC(=O)c1c(N)sc2c1C(C(=O)OC)CC2 (stereo not drawn)" classification=-1
compound=N#Cc1cccc(NC(=O)c2ccc3c(c2)N(Cc2cccc(Cl)c2)C(=O)c2ccccc2S3(=O)=O)c1 classification=-1
compound=O=C(Cc1ccccc1)Nc1sc2c(c1C(=O)Nc1ccc(Br)cc1)CCCC2 classification=-1
